methodSummary: Systemic pharmacokinetics and total colon tissue distribution after single oral administration in mice
Type: in vivo, male C57BL/6 mice
conditions: male, C57BL/6, mouse, oral 10 mg/kg, plasma, 6 h, read-out: Mean plasma concentration
Method: Studies were conducted by Sai Life Sciences (Hinjewadi, Pune, India) to investigate the systemic pharmacokinetics and total colon tissue distribution of compounds of the invention following a single oral administration in male C57BL/6 mice. A group of twenty four male mice were administered with a solution of test compound formulated at a dose of 10 mg/10 mL/kg in aqueous hydroxypropyl-β-cyclodextrin (20% w/v in water). […]
metric: concentration at 6 h
Please answer using a numeric value trailed by its unit.

query: Query: concentration at 6 h; subject: CCc1cc(O)c(F)cc1-c1ccc2c(-c3nc4c([nH]3)CCN(C(=O)c3cnc(N(C)CCN5CCCC5=O)cn3)C4)n[nH]c2c1 [Example 2(k)]
result: 3.4 ng/mL

* * *

methodSummary: Systemic pharmacokinetics and total colon tissue distribution after single oral administration in mice
Format: in vivo, male C57BL/6 mice
conditions: male, C57BL/6, mouse, total colon tissue / plasma, po, 10 mg/kg, read-out: Cmax ratio (total colon to plasma)
metric: Kp

query: Query: Kp; subject: CCc1cc(O)c(F)cc1-c1ccc2c(-c3nc4c([nH]3)CCN(C(=O)c3cnc(N(C)CCN5CCCC5=O)cn3)C4)n[nH]c2c1 [Example 2(k)]
result: 3170

* * *

Would you kindly list IC50 for each of these compounds?
Tested on: CD3/IL2 stimulated PBMC cells
methodSummary: IFNγ release from CD3/IL2 stimulated PBMC cells (assay (a))
Format: cell-based
conditions: Homo sapiens, CD3/IL2 stimulation, 48 h, ELISA
Please answer using a numeric value trailed by its unit.

query: Field: IC50 (CD3/IL2 stimulated PBMC cells). Entry: CCc1cc(O)c(F)cc1-c1ccc2c(-c3nc4c([nH]3)CCN(C(=O)c3cnc(N5CCN(CCO)CC5)cn3)C4)n[nH]c2c1 [Example 2(l)]
result: 9.4 nM

query: And then CCc1cc(O)c(F)cc1-c1ccc2c(-c3nc4c([nH]3)CCN(C(=O)c3cnc(N5CCCCC5)cn3)C4)n[nH]c2c1 [Reference Compound, reference compound] , what is it?
result: 81.3 nM

query: And then CCc1cc(O)c(F)cc1-c1ccc2c(-c3nc4c([nH]3)CCN(C(=O)c3cnc(N5CCN(CCN(C)C)CC5)cn3)C4)n[nH]c2c1 [Example 2(f)] , what is it?
result: 49.3 nM

query: And then CCc1cc(O)c(F)cc1-c1ccc2c(-c3nc4c([nH]3)CCN(C(=O)c3cnc(N5C[C@@H]6C(=O)NC(=O)[C@@H]6C5)cn3)C4)n[nH]c2c1 [Example 2(w)] , what is it?
result: 942 nM

query: And then CCc1cc(O)c(F)cc1-c1ccc2c(-c3nc4c([nH]3)CCN(C(=O)c3cnc(N(CCO)CCO)cn3)C4)n[nH]c2c1 [Example 2(p)] , what is it?
result: 154 nM

query: And then CCc1cc(O)c(F)cc1-c1ccc2c(-c3nc4c([nH]3)CCN(C(=O)c3cnc(N5CC(CO)C5)cn3)C4)n[nH]c2c1 [Example 2(o)] , what is it?
result: 22.5 nM

query: And then CCc1cc(O)c(F)cc1-c1ccc2c(-c3nc4c([nH]3)CCN(C(=O)c3cnc(N(C)CCN5CCCC5=O)cn3)C4)n[nH]c2c1 [Example 2(k)] , what is it?
result: 9.9 nM

query: And then CCc1cc(O)c(F)cc1-c1ccc2c(-c3nc4c([nH]3)CCN(C(=O)c3cnc(N5C[C@H]6CN(C)C[C@H]6C5)cn3)C4)n[nH]c2c1 [Example 2(t)] , what is it?
result: 15.2 nM

query: And then CCc1cc(O)c(F)cc1-c1ccc2c(-c3nc4c([nH]3)CCN(C(=O)c3cnc(N(C)C5CCN(C)CC5)cn3)C4)n[nH]c2c1 [Example 1] , what is it?
result: 22.6 nM

query: And then CCc1cc(O)c(F)cc1-c1ccc2c(-c3nc4c([nH]3)CCN(C(=O)c3cnc(NCCN5CCCC5=O)cn3)C4)n[nH]c2c1 [Example 2(r)] , what is it?
result: 90.8 nM

query: And then CCc1cc(O)c(F)cc1-c1ccc2c(-c3nc4c([nH]3)CCN(C(=O)c3cnc(N(C)CCCC(=O)O)cn3)C4)n[nH]c2c1 [Example 2(a)] , what is it?
result: 732 nM

query: And then CCc1cc(O)c(F)cc1-c1ccc2c(-c3nc4c([nH]3)CCN(C(=O)c3cnc(N5CCC[C@H]5CO)cn3)C4)n[nH]c2c1 [Example 2(h)] , what is it?
result: 12.1 nM

Hey, just so you know, these numbers are from patent US10851097B2.
